Counter-ions that a name gives are not always drawn.
Entries with reported Ki on M3 muscarinic receptor (Homo sapiens)

{"columns": ["compound", "obsValue"],
 "data": [
  ["C[N+](C)(CCOCc1ccc(Cl)cc1)Cc1cnc([C@](O)(c2ccccc2)C2CCCCC2)o1 [Example 81, methanesulfonate]", "< 1 nM"],
  ["CNCCCCCCCC[N+](C)(C)Cc1cnc([C@](O)(c2ccccc2)C2CCCCC2)o1 [Example 61, methanesulfonate hydrochloride salt]", "< 1 nM"],
  ["C[N+](C)(CCCCc1ccccc1)Cc1cnc([C@](O)(c2ccccc2)C2CCCCC2)o1 [Example 45]", "< 1 nM"],
  ["C[N+](C)(CCCCOc1ccccc1)Cc1cnc([C@](O)(c2ccccc2)C2CCCCC2)o1 [Example 43]", "< 1 nM"],
  ["C[N+](C)(CCCOc1ccccc1)Cc1cnc([C@](O)(c2ccccc2)C2CCCC2)o1 [Example 37]", "< 1 nM"]
]}

List reported Ki for each of these compounds:
1. CN(CCCOc1ccccc1)Cc1cnc(C(O)(c2ccccc2)C2CCCCC2)o1 (stereo not shown) [Example 13]
2. C[N+](C)(CCCOc1ccccc1)Cc1cnc(C(O)(c2ccccc2)c2ccccc2)o1 [Example 2, formate]
3. OC(c1ccccc1)(c1ccccc1)c1ncc(CN2CCC(Oc3ccccc3)CC2)o1 [Example 26]
4. CN(CCCCCCCC[N+](C)(C)Cc1cnc([C@](O)(c2ccccc2)C2CCCCC2)o1)C(=O)OC(C)(C)C [Example 47, methanesulfonate]
5. Cc1cccc(C[N+](C)(C)Cc2cnc([C@](O)(c3ccccc3)C3CCCCC3)o2)n1 [Example 35, formate]

["1 to 10 nM", "< 1 nM", "> 10 nM", "1 to 10 nM", "1 to 10 nM"]

---

Please provide measured pKi for the entries that follow.
- testedTarget: M3 muscarinic receptor (Homo sapiens)
pKi: −log10 of the molar value.

{"columns": ["compound", "pKi"],
 "data": [
  ["O[C@@](c1ccccc1)(c1ncc(C[N+]2(CCCOc3ccccc3)CCCC2)o1)C1CCCCC1", "< 8.00"],
  ["C[N+](C)(CCCOc1ccccc1)CCc1cnc(C(O)(c2ccccc2)C2CCCCC2)o1 (single isomer, unassigned) [Example 69]", "> 9.00"],
  ["C[N+](C)(CCCOc1ccccc1)Cc1cnc(C(c2ccccc2)c2ccccc2)o1", "< 8.00"]
]}

// next entry
Which pKi value belongs to CC(C)=CCC[N+](C)(C)Cc1cnc([C@](O)(c2ccccc2)C2CCCCC2)o1 ?
> 9.00

---

Entries with reported Ki on M3 muscarinic receptor (Homo sapiens, UniProt P20309)
Sequence (P20309 whole entry): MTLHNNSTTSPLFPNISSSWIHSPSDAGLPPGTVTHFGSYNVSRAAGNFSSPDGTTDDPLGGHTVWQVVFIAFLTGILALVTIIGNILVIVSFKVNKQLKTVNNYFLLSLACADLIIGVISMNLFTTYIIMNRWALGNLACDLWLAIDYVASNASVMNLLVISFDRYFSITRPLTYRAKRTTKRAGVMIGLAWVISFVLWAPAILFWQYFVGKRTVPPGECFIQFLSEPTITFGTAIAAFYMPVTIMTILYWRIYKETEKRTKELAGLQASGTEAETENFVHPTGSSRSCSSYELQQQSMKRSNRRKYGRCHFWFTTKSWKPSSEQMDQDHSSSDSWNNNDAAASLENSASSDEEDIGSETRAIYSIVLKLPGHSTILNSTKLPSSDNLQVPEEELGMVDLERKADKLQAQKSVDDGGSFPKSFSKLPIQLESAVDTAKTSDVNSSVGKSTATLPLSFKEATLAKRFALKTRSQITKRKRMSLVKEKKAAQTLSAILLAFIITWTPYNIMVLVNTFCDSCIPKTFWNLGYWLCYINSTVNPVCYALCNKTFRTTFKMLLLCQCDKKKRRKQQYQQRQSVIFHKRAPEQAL
Where a name gives a salt, the structure may show the parent alone.

Known results for compounds:
{"columns": ["compound", "Ki"],
 "data": [
  ["CN(C)CCc1cnc(C(O)(c2ccccc2)c2ccccc2)o1", "1 to 10 nM"],
  ["COCCCCCCCC[N+](C)(C)Cc1cnc([C@](O)(c2ccccc2)C2CCCCC2)o1 [Example 42, formate]", "1 to 10 nM"],
  ["CNCc1ccc(CC[N+](C)(C)Cc2cnc([C@](O)(c3ccccc3)C3CCCCC3)o2)cc1 [Example 62, methanesulfonate hydrochloride]", "< 1 nM"],
  ["COC(=O)c1ccc(OCCC[N+](C)(C)Cc2cnc([C@](O)(c3ccccc3)C3CCCCC3)o2)cc1", "1 to 10 nM"]
]}

List reported Ki for each of these compounds:
1. C[N+](C)(CCc1ccccc1)Cc1cnc([C@](O)(c2ccccc2)C2CCCCC2)o1
2. C[N+]1(Cc2cnc(C(O)(c3ccccc3)c3ccccc3)o2)CCC(Oc2ccccc2)CC1 (stereo not drawn)
3. CN(CCCCCCCCCNC[C@H](O)c1ccc(O)c2[nH]c(=O)ccc12)Cc1cnc(C(O)(c2ccccc2)C2CCCCC2)o1 (stereo partly drawn)
4. CN(C)CCc1cnc(C(O)(c2ccccc2)C2CCCCC2)o1 (single isomer, unassigned)
5. C[N+](C)(CCOCc1ccccc1)Cc1cnc([C@](O)(c2ccccc2)C2CCCCC2)o1
6. C[N+](C)(CCCOc1ccccc1)CCc1cnc(C(O)(c2ccccc2)C2CCCCC2)o1 (stereo not drawn) [Example 65]

< 1 nM
1 to 10 nM
> 10 nM
1 to 10 nM
< 1 nM
< 1 nM

List reported Ki for each of these compounds:
1. CN(C)Cc1cnc(C(O)(c2ccccc2)C2CCCCC2)o1 (stereo not drawn)
2. C[N+](C)(CCCOc1ccccc1)Cc1cnc([C@](O)(c2ccccc2)C2CCCCC2)o1
3. C[N+](C)(CCOc1ccccc1)Cc1cnc([C@](O)(c2ccccc2)C2CCCCC2)o1 [Example 49, formate]
4. C[N+](C)(CCCc1ccccc1)Cc1cnc([C@](O)(c2ccccc2)C2CCCCC2)o1 [Example 48, formate]
5. CN(Cc1ccc(CC[N+](C)(C)Cc2cnc([C@](O)(c3ccccc3)C3CCCCC3)o2)cc1)C(=O)OC(C)(C)C [Example 50, methanesulfonate]

["< 1 nM", "< 1 nM", "< 1 nM", "< 1 nM", "> 10 nM"]

Reference source: patent US20100113540A1
